assay: Direct HA-binding ELISA of biotinylated peptides on HA coated plates (Example 4); design: key: absorbance (color) read at 450 nm; settings: as repeated in tables 16, 18, 20
Bridges are numbered along the chain shown (N, C = ends).
For each record, write down the corresponding HA binding.
Just the number, please.

Field HA binding (entry Ac-NLKQKIKHVVKLKDE-NH2 [Compound 156] ) reads 0.01

Entry Ac-VSKLRSQLVKRKQN-NH2 [Compound 132] — recorded HA binding = 0.03

Reported HA binding of Ac-(cyclo-7,11)-VSKLRS[ELVKK]KQN-NH2 (Ac-VSKLRSELVKKKQN-NH2; lactam 7-11; SMILES CC(=O)N[C@H](C(=O)N[C@@H](CO)C(=O)N[C@@H](CCCCN)C(=O)N[C@@H](CC(C)C)C(=O)N[C@@H](CCCNC(=N)N)C(=O)N[C@@H](CO)C(=O)N[C@H]1CCC(=O)NCCCC[C@@H](C(=O)N[C@@H](CCCCN)C(=O)N[C@@H](CCC(N)=O)C(=O)N[C@@H](CC(N)=O)C(N)=O)NC(=O)[C@H](CCCCN)NC(=O)[C@H](C(C)C)NC(=O)[C@H](CC(C)C)NC1=O)C(C)C) [Compound 153] : 0.08

Ac-(cyclo-5,9)-VSKL[ESQLK]KRKQN-NH2 (Ac-VSKLESQLKKRKQN-NH2; lactam 5-9; SMILES CC(=O)N[C@H](C(=O)N[C@@H](CO)C(=O)N[C@@H](CCCCN)C(=O)N[C@@H](CC(C)C)C(=O)N[C@H]1CCC(=O)NCCCC[C@@H](C(=O)N[C@@H](CCCCN)C(=O)N[C@@H](CCCNC(=N)N)C(=O)N[C@@H](CCCCN)C(=O)N[C@@H](CCC(N)=O)C(=O)N[C@@H](CC(N)=O)C(N)=O)NC(=O)[C@H](CC(C)C)NC(=O)[C@H](CCC(N)=O)NC(=O)[C@H](CO)NC1=O)C(C)C) [Compound 151] yielded HA binding of 0.01

HA binding recorded for this substance, Ac-(cyclo-8,12)-NLKQKIK[EVVKK]KDE-NH2 (Ac-NLKQKIKEVVKKKDE-NH2; lactam 8-12; SMILES CC[C@H](C)[C@H](NC(=O)[C@H](CCCCN)NC(=O)[C@H](CCC(N)=O)NC(=O)[C@H](CCCCN)NC(=O)[C@H](CC(C)C)NC(=O)[C@H](CC(N)=O)NC(C)=O)C(=O)N[C@@H](CCCCN)C(=O)N[C@H]1CCC(=O)NCCCC[C@@H](C(=O)N[C@@H](CCCCN)C(=O)N[C@@H](CC(=O)O)C(=O)N[C@@H](CCC(=O)O)C(N)=O)NC(=O)[C@H](CCCCN)NC(=O)[C@H](C(C)C)NC(=O)[C@H](C(C)C)NC1=O) [Compound 161] , is 0.009

# HA binding (substance: Ac-(cyclo-5,9)-VSKL[KSQLE]KRKQN-NH2 (Ac-VSKLKSQLEKRKQN-NH2; lactam 5-9; SMILES CC(=O)N[C@H](C(=O)N[C@@H](CO)C(=O)N[C@@H](CCCCN)C(=O)N[C@@H](CC(C)C)C(=O)N[C@H]1CCCCNC(=O)CC[C@@H](C(=O)N[C@@H](CCCCN)C(=O)N[C@@H](CCCNC(=N)N)C(=O)N[C@@H](CCCCN)C(=O)N[C@@H](CCC(N)=O)C(=O)N[C@@H](CC(N)=O)C(N)=O)NC(=O)[C@H](CC(C)C)NC(=O)[C@H](CCC(N)=O)NC(=O)[C@H](CO)NC1=O)C(C)C) [Compound 154] ) is 0.045
